Give Absolute Jmax for every item shown.
target: hASBT (Homo sapiens, UniProt Q12908); assay: hASBT-mediated active uptake into hASBT-MDCK monolayers; type: cell-based; conditions: maximum substrate flux, mean ± SEM
Sequence (Q12908 whole entry): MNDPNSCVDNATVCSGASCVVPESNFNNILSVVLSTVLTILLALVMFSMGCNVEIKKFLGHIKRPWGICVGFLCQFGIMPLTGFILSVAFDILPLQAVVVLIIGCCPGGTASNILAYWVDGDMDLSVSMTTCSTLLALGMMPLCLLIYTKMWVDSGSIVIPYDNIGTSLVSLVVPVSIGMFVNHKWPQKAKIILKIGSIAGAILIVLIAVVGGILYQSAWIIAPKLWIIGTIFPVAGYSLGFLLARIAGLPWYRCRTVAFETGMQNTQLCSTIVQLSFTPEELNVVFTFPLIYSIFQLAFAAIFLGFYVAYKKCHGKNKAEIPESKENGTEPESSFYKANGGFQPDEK
The answer consists of two parts: a number and, after it, its unit.

Answered examples (4):
{"columns": ["molecule", "Absolute Jmax"],
 "data": [
  ["C[C@H](CCC(=O)NCC(=O)O)[C@H]1CC[C@H]2[C@@H]3CC[C@@H]4C[C@@H](O)CC[C@]4(C)[C@H]3CC[C@]12C [gly-iLCA]", "0.017 ± 0.006 pmol/cm^2/s"],
  ["C[C@H](CCC(=O)NCC(=O)O)[C@H]1CC[C@H]2[C@@H]3[C@H](O)C[C@@H]4C[C@@H](O)CC[C@]4(C)[C@H]3CC[C@]12C [gly-iCDCA]", "0.065 ± 0.004 pmol/cm^2/s"],
  ["C[C@H](CCC(=O)NCC(=O)O)[C@H]1CC[C@H]2[C@@H]3[C@H](O)C[C@@H]4C[C@@H](O)CC[C@]4(C)[C@H]3C[C@H](O)[C@]12C [gly-iCA]", "0.166 ± 0.024 pmol/cm^2/s"],
  ["C[C@H](CCC(=O)NCC(=O)O)[C@H]1CC[C@H]2[C@@H]3[C@@H](O)C[C@@H]4C[C@@H](O)CC[C@]4(C)[C@H]3CC[C@]12C [gly-iUDCA]", "0.038 ± 0.006 pmol/cm^2/s"]
]}

Now look at this entry.
Query: Param item = C[C@H](CCC(=O)NCC(=O)O)[C@H]1CC[C@H]2[C@@H]3CC[C@@H]4C[C@@H](O)CC[C@]4(C)[C@H]3C[C@H](O)[C@]12C [gly-iDCA] ; retrieve measured Absolute Jmax.
Result: 0.010 ± 0.003 pmol/cm^2/s
